B1: Poly(rC)-binding protein 1, residues 278 to 350; numbered along this chain, Q15365 (parent)
chain: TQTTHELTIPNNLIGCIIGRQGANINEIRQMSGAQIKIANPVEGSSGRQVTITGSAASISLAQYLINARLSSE

# Variants of: B1
# test-details: abundance fitness (aPCA) (normalised: wild type 0, dead -1); higher = more abundant; growth selection in yeast, the domain comes from the species named
# condition-set: Homo sapiens
Examples of variants with documented abundance fitness follow.
measured-metric: abundance fitness

>>> df
    mutation_spec  endpoint_value
 0           G33W          -0.414
 1           G33M          -0.657
 2           N11M           -0.28
 3           R48N          -0.368
 4           G19V          -0.991
 5           I14P          -0.647
 6           Q63P           -1.17
 7           G19Q          -0.532
 8           E43W           -0.18
 9            I9C          -0.839
10           A57S           0.016
11           N24I           -0.06
12           R20C           -0.04
13           T53S          -0.041
14           I36G          -0.782
15           G15W           -0.14
